Organism: Rattus norvegicus
assayProtocol: Open TG-GATES - Regimen: Daily Repeat
Format: toxicity, organism-based, Sprague-Dawley
Design: regimen Daily Repeat, gender Male, age 6 weeks
conditions: in vivo, po, 1000 mg/kg, 72 h, tissue Plasma, route gavage, dose level High, time 3 day
endpoint: K (meq/L)
Hi! Could you send only the number? It should be in meq/L, unit omitted.

O=C(OC[C@H]1O[C@@H](OC(=O)c2cc(O)c(O)c(OC(=O)c3cc(O)c(O)c(O)c3)c2)[C@H](OC(=O)c2cc(O)c(O)c(OC(=O)c3cc(O)c(O)c(O)c3)c2)[C@@H](OC(=O)c2cc(O)c(O)c(OC(=O)c3cc(O)c(O)c(O)c3)c2)[C@@H]1OC(=O)c1cc(O)c(O)c(OC(=O)c2cc(O)c(O)c(O)c2)c1)c1cc(O)c(O)c(OC(=O)c2cc(O)c(O)c(O)c2)c1 [TANNIC ACID] ... 4.6
CNC(=C[N+](=O)[O-])NCCSCc1ccc(CN(C)C)o1 [RANITIDINE] ... 4
Cc1nnc2n1-c1ccc(Cl)cc1C(c1ccccc1Cl)=NC2 [TRIAZOLAM] ... 4.2
COC(=O)C1=C(C)NC(C)=C(C(=O)OC)C1c1ccccc1[N+](=O)[O-] [NIFEDIPINE] ... 4.1
CN/C(=N/CCSCc1nc[nH]c1C)NC#N [CIMETIDINE] ... 3.8

Alright, here's another compound for you.
Which K value belongs to CCOc1ccc(NC(C)=O)cc1 [PHENACETIN] ?
4.4

###

Species on record: Rattus norvegicus
assayProtocol: Open TG-GATES - Regimen: Single
Format: toxicity, organism-based, Sprague-Dawley
Parameters: regimen Single, gender Male, age 6 weeks
conditions: in vivo, po, 0 mg/kg, 3 h, tissue Plasma, route gavage, dose level Control
endpoint: log10 of DBIL (log10 of the value in mg/dL)
Answers are given as log10 of DBIL in mg/dL.

The following compounds have reported results that may help.
COC(=O)C1=C(C)NC(C)=C(C(=O)OC)C1c1ccccc1[N+](=O)[O-] [NIFEDIPINE] ... -1.92
Nc1c2c(nc3ccccc13)CCCC2 [TACRINE] ... -2.70
CCCc1cc(=O)[nH]c(=S)[nH]1 [PROPYLTHIOURACIL] ... -1.62
O=C(OC[C@H]1O[C@@H](OC(=O)c2cc(O)c(O)c(OC(=O)c3cc(O)c(O)c(O)c3)c2)[C@H](OC(=O)c2cc(O)c(O)c(OC(=O)c3cc(O)c(O)c(O)c3)c2)[C@@H](OC(=O)c2cc(O)c(O)c(OC(=O)c3cc(O)c(O)c(O)c3)c2)[C@@H]1OC(=O)c1cc(O)c(O)c(OC(=O)c2cc(O)c(O)c(O)c2)c1)c1cc(O)c(O)c(OC(=O)c2cc(O)c(O)c(O)c2)c1 [TANNIC ACID] ... -1.80

Alright, here's another compound for you.
Which log10 of DBIL value belongs to CNC(=C[N+](=O)[O-])NCCSCc1ccc(CN(C)C)o1 [RANITIDINE] ?
-1.17

###

LIVER values by entry
Organism: Rattus norvegicus
assayProtocol: Open TG-GATES - Regimen: Single
Assay type: toxicity, organism-based, Sprague-Dawley
Set-up: regimen Single, gender Male, age 6 weeks
conditions: in vivo, po, 0 mg/kg, 6 h, tissue Liver, route gavage, dose level Control

O=C(OC[C@H]1O[C@@H](OC(=O)c2cc(O)c(O)c(OC(=O)c3cc(O)c(O)c(O)c3)c2)[C@H](OC(=O)c2cc(O)c(O)c(OC(=O)c3cc(O)c(O)c(O)c3)c2)[C@@H](OC(=O)c2cc(O)c(O)c(OC(=O)c3cc(O)c(O)c(O)c3)c2)[C@@H]1OC(=O)c1cc(O)c(O)c(OC(=O)c2cc(O)c(O)c(O)c2)c1)c1cc(O)c(O)c(OC(=O)c2cc(O)c(O)c(O)c2)c1 [TANNIC ACID] ... 8.6 g

Which LIVER value belongs to CC(C)NNC(=O)c1ccncc1 [IPRONIAZID] ?
9 g
